target: hPHGDH (Homo sapiens, UniProt O43175); assay: hPHGDH forward reaction kinetics (PSAT-coupled or hydrazine assay, NADH fluorescence); type: biochemical; design: His-tagged full-length hPHGDH was expressed in BL21(DE3) E. coli cells; made in house; host or cells: E. coli BL21(DE3); conditions: substrate varied, […] NAD+, hydrazine assay; Figure S3B,D-F
Sequence (O43175 whole entry): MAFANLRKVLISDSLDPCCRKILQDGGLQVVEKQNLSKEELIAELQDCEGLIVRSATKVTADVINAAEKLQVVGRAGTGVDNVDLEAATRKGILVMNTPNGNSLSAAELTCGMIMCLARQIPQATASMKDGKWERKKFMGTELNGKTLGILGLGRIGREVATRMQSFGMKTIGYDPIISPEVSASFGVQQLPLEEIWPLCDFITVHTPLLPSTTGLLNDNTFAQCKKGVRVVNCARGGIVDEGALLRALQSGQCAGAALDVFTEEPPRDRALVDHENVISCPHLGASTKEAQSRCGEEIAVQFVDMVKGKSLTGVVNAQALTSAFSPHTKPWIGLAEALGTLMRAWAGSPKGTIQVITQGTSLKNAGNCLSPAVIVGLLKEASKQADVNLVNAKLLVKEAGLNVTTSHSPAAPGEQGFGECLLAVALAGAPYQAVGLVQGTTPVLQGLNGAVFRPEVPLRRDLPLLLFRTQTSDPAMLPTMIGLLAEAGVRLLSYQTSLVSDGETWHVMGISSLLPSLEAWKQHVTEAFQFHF
EXPERIMENTAL ENDPOINT: maximal rate of Michaelis–Menten fit

Consider the following illustrative entries.
O=C(O)C(O)COP(=O)(O)O [3PG, D-3-phosphoglycerate]    2.972
O=C(O)[C@@H](O)[C@H](O)C(=O)O [D-Tartrate]    0.4125

1 = O=C(O)C[C@@H](O)C(=O)O [D-Malate]
2 = C[C@@H](O)C(=O)O [D-Lactate]
3 = CC(O)CC(=O)O [D-3-Hydroxybutyrate]
input: I would appreciate it if you could sort these 3 compounds by maximal rate of Michaelis–Menten fit, starting from the smallest number. Return the labels ranked in the requested order, please.
output: 1, 3, 2
(1: 0.4351, 3: 2.527, 2: 5.407)
